Collected pIC50 for UniProt O15054 across several studies; compounds listed below.
pIC50: −log10 of the molar value.

Reference set, count: 4
[
  {
    "Compound": "O=C(O)c1ccncc1NC[C@@H]1CCOc2cc(-c3ccccc3O)ccc21",
    "pIC50": "5.00 to 6.00"
  },
  {
    "Compound": "Cc1noc(C)c1N(C)c1ccc2c(c1)CCC[C@H]2CNc1cnccc1C(=O)O",
    "pIC50": "5.00 to 6.00"
  },
  {
    "Compound": "O=C(CNCc1cc(/C=N/C2CC2)ccn1)NC1CCN(Cc2ccccc2)C1 (centres unmarked)",
    "pIC50": "5.60 to 6.60"
  },
  {
    "Compound": "CN1CCC(CNCc2cc(C=O)ccn2)CC1",
    "pIC50": "< 5.60"
  }
]

# lookup: pIC50 of Cc1cccc(-c2ccc3c(c2)OCC[C@@H]3CNc2cnccc2C(=O)O)c1
6.00 to 7.00

# lookup: pIC50 of C(=N/C1CC1)/c1ccnc(CNCCCN2CCCC2)c1
< 5.60

# lookup: pIC50 of CCN1CCCC1CNC(=O)CNCc1cc(C=O)ccn1 (centres unmarked)
< 5.60

# lookup: pIC50 of CCN1CCCC1CNC(=O)CNCc1cc(/C=N/C2CC2)ccn1 (centres unmarked)
< 5.60

# lookup: pIC50 of Cc1ccc(Oc2ccc3c(c2)CCC[C@H]3CNc2cnccc2C(=O)O)c(F)c1
5.00 to 6.00

# lookup: pIC50 of CCN(CC)CCCCN(Cc1cc(C=O)ccn1)C(=O)C(F)(F)F
< 5.60

# lookup: pIC50 of CCN(CC)CCCCNCc1cc(C2NCCN2C)ccn1 (centres unmarked)
< 5.60

# lookup: pIC50 of C#CCN(C)C(=O)CNCc1cc(/C=N/C2CC2)ccn1
< 5.60

# lookup: pIC50 of O=C(O)c1ccnc(CNCCCn2ccnc2)c1
≤ 6.00

# lookup: pIC50 of Cc1sccc1-c1ccc2c(c1)OCC[C@H]2CNc1cnccc1C(=O)O
5.00 to 6.00

# lookup: pIC50 of CN(C)CC1CCC(CNCc2cc(C=O)ccn2)CC1 (centres unmarked)
< 5.60

# lookup: pIC50 of CN(C)CCCCNCc1cc(/C=N\C2CC2)ccn1
< 5.60

# lookup: pIC50 of CN(c1ccc(CC(F)(F)F)cc1)c1ccc2c(c1)OCC[C@H]2CNc1cnccc1C(=O)O
5.00 to 6.00

# lookup: pIC50 of CN(C)CCCCCNCc1cc(CN)ccn1
< 5.60

# lookup: pIC50 of CCc1ccc(N(C)c2ccc3c(c2)OCC[C@H]3CNc2cnccc2C(=O)O)cc1
5.00 to 6.00

# lookup: pIC50 of CCN(CCN(C)C)C(=O)CNCc1cc(C=O)ccn1
< 5.60
